Origin of the recorded values: a melting point compilation (Tetko et al.; mined from patent text by program, amines drawn as free bases though some values may be those of a salt)

Examples of molecules with documented melting point follow.

Exercise: Please supply the value of reported melting point for the item `Cc1cn(N)c(=O)n1C`
Key: 115 to 119 °C

Exercise: Please supply the value of reported melting point for the item `O=C(Cn1c(-c2ccc(Cl)cc2)nc2cccnc21)N1CCN(c2cccc(C(F)(F)F)c2)CC1`
Key: 185 to 186 °C

Exercise: Please supply the value of reported melting point for the item `C[Si](C)(C)c1cccc(C[C@@H]2N[C@@H](c3ccccc3)[C@@H](c3ccccc3)OC2=O)c1`
Key: 94 to 95 °C

---

Examples of compounds with documented melting point follow.

{"compound": "CC1(C)OC(=S)Nc2ccc(-c3ccc(F)cc3)cc21", "endpoint.label": "melting point", "result": "221 to 223 °C"}
{"compound": "CCOc1ccc2c(c1)C(C)(c1cc(NC(=O)CN(C)C)ccc1Cl)C(=O)N2S(=O)(=O)c1ccc(C(=O)NC(C)(C)C)cc1OC (stereo not drawn)", "endpoint.label": "melting point", "result": "150 °C"}
{"compound": "C#Cc1ccc2c(c1)C(=O)N(C(C)(C)C)CC(=O)N2", "endpoint.label": "melting point", "result": "216 to 219 °C"}
{"compound": "O=C(Nc1cc(C2CC2)n[nH]1)c1ccccc1", "endpoint.label": "melting point", "result": "234 °C"}
{"compound": "CC(C)CCC(=O)N1C(=O)O[C@H](c2ccccc2)[C@@H]1C", "endpoint.label": "melting point", "result": "76 to 77 °C"}

Exercise: Please supply the value of reported melting point for the item `Cc1oc2nc(C(=O)O)nc(OCCN(C)C)c2c1C`
Key: 179 to 180 °C

Exercise: Please supply the value of reported melting point for the item `CC(C)c1ccccc1S(=O)(=O)c1ccc(O)cc1`
Key: 160 °C

Exercise: Please supply the value of reported melting point for the item `COC(=O)c1nc(Cl)sc1-c1ccccc1`
Key: 63 to 65 °C

Exercise: Please supply the value of reported melting point for the item `O=C(Nc1cc(F)cc(F)c1)c1ccccn1`
Key: 111 to 113 °C
